// reported SPOT peptide array binding signal intensity per item
biological target: ScHse1; experiment: SPOT peptide array binding signal intensity (averaged, normalized) (arbitrary units (background-subtracted, floor 0; scale differs between SH3 domains)); higher = stronger binding of the SH3 domain to the peptide
Quick one: just the number, no unit, thanks!

Consider the reported SPOT peptide array binding signal intensity for these binders:
MTKTPETSPPKRPMG 18.5
VNIPSPSSSPPPIPK 35
RRRIAYPFYPFKKLG 1700
FLIKFTPKFPQSIDH 2710
LFMKGTPEFPKSGFS 17.5
NMLKKKPLKKPLKRF 1740

Would you kindly look at the next entry?
Lookup: Quick one: SPOT peptide array binding signal intensity for WTQRRGPLVVYAEDN ?
Found: 140
